- Test system: OVCAR4
- measurement_protocol: Euclidean distance of Cell Painting phenotypic profile (signed KS, 77 features) to DMSO centroid (dimensionless distance); 5 or 10 uM (library dependent); higher = stronger phenotypic change vs DMSO (phenoactivity)
- setup_conditions: 48 h
Where a name gives a salt, the structure may show the parent alone.
measured_metric: Euclidean distance

Enquiry: Specify reported Euclidean distance for the molecule shown: CCCCCCCCN=c1ccn(CCCCCCCCCCn2ccc(=NCCCCCCCC)cc2)cc1 [Octenidine Dihydrochloride]
Return: 6.71

Enquiry: Check the records and state Euclidean distance for OCc1ccccc1O[C@@H]1O[C@H](CO)[C@@H](O)[C@H](O)[C@H]1O [Salicin]
Return: 1.21

Enquiry: Tell me its Euclidean distance given CCC(=O)O[C@]1(C(=O)SCF)[C@H](C)C[C@H]2[C@@H]3C[C@H](F)C4=CC(=O)C=C[C@]4(C)[C@@]3(F)[C@@H](O)C[C@@]21C [Fluticasone propionate] as the entry.
Return: 1.61

Enquiry: Report Euclidean distance for Cc1c(-c2ccc(-c3ccccc3F)cc2)nc2ccc(F)cc2c1C(=O)O [Brequinar]
Return: 1.45

Enquiry: State its Euclidean distance: Clc1cccc(Cl)c1NC1=NCCN1 [Clonidine HCl]
Return: 1.24

Enquiry: Find the measured Euclidean distance of OCCOc1ccc(/C(=C(/CCCl)c2ccccc2)c2ccccc2)cc1 [Ospemifene] and report it.
Return: 1.06

Enquiry: Note down Euclidean distance recorded for "CC[C@@H](Nc1c(Nc2cccc(C(=O)N(C)C)c2O)c(=O)c1=O)c1ccc(C)o1"
Return: 0.96

Enquiry: Item O=S(=O)(O)CCCCOC[C@H]1O[C@@H]2O[C@H]3[C@H](O)[C@@H](O)[C@@H](O[C@H]4[C@H](O)[C@@H](O)[C@@H](O[C@H]5[C@H](O)[C@@H](O)[C@@H](O[C@H]6[C@H](O)[C@@H](O)[C@@H](O[C@H]7[C@H](O)[C@@H](O)[C@@H](O[C@H]8[C@H](O)[C@@H](O)[C@@H](O[C@H]1[C@H](O)[C@H]2O)O[C@@H]8CO)O[C@@H]7COCCCCS(=O)(=O)O)O[C@@H]6COCCCCS(=O)(=O)O)O[C@@H]5COCCCCS(=O)(=O)O)O[C@@H]4COCCCCS(=O)(=O)O)O[C@@H]3COCCCCS(=O)(=O)O [Captisol (SBE-Œ≤-CD)] : provide Euclidean distance
Return: 1.1

Enquiry: Supply recorded Euclidean distance for O=C1[C@H]2CCCC[C@H]2C(=O)N1CCCCN1CCN(c2nsc3ccccc23)CC1 [Perospirone hydrochloride] here.
Return: 1.36

Enquiry: Supply recorded Euclidean distance for Cc1cc(C)nc(NS(=O)(=O)c2ccc(N)cc2)n1 [Sulfamethazine] here.
Return: 1.17

Enquiry: Item Cc1cn([C@H]2O[C@@H](CO)[C@H](O)[C@H]2F)c(=O)[nH]c1=O [Clevudine] : provide Euclidean distance
Return: 1.03

Enquiry: Return the recorded Euclidean distance value; entry: Cc1ccc(Cl)c(Nc2ccccc2C(=O)O)c1Cl [Meclofenamate Sodium]
Return: 1.94

Enquiry: Look up Euclidean distance of COC(=O)C1=CO[C@@H](O[C@@H]2O[C@H](CO)[C@@H](O)[C@H](O)[C@H]2O)[C@@H]2C(CO)=CC[C@H]12 [Geniposide] and report it.
Return: 1.23

Enquiry: Tell me measured Euclidean distance for "COc1cc2ncnc(Nc3ccc(F)c(Cl)c3)c2cc1NC(=O)/C=C/CN1CCCCC1" please.
Return: 2.05

Enquiry: Provide Euclidean distance value for the following molecule: Nc1ccc(S(=O)(=O)Nc2ncccn2)cc1 [Sodium sulfadiazine]
Return: 1.12

Enquiry: Indicate its recorded Euclidean distance; the molecule in question is OC[C@@H](O)[C@@H](O)[C@H](O)[C@@H](O)CO [Sorbitol]
Return: 1.21

Enquiry: // Input: "COc1cc(NC(=O)c2ccccn2)ccc1Cl" . Output its Euclidean distance only.
Return: 1.19

Enquiry: Please look at this molecule and report its Euclidean distance: "CC(C)OC(=O)C1=CN(C(=O)c2ccc(F)c(F)c2)CC(C)(C)c2c1[nH]c1ccccc21"
Return: 1.07

Enquiry: Provide one value: measured Euclidean distance of NS(=O)(=O)c1cc2c(cc1Cl)NCNS2(=O)=O [Hydrochlorothiazide]
Return: 0.927

Enquiry: Please report the measured Euclidean distance for "NC(=O)c1ccc(-c2nc(-c3ccccn3)c(-c3ccc4c(c3)OCO4)[nH]2)cc1"
Return: 2.61

Enquiry: For the molecule CN(C)CCc1c[nH]c2ccc(CS(=O)(=O)N3CCCC3)cc12 [Almotriptan Malate] , report Euclidean distance.
Return: 1.51

Enquiry: Answer with the recorded Euclidean distance of O=C(O)c1cc(-c2ccc(F)cc2F)ccc1O [Diflunisal] only.
Return: 1.71

Enquiry: Determine its reported Euclidean distance: O=C(O)c1cc(=O)c2ccccc2o1 [Chromocarb]
Return: 0.727

Enquiry: Please supply the value of reported Euclidean distance for the item CCc1nc(C(N)=O)c(Nc2ccc(N3CCC(N4CCN(C)CC4)CC3)c(OC)c2)nc1NC1CCOCC1 [Gilteritinib (ASP2215)]
Return: 2.89

Enquiry: Write down Euclidean distance measured for item Cc1cn(-c2cc(NC(=O)c3ccc(C)c(Nc4nccc(-c5cccnc5)n4)c3)cc(C(F)(F)F)c2)cn1 [Nilotinib hydrochloride]
Return: 3.14

Enquiry: Please supply the value of reported Euclidean distance for the item O=C1NC(=O)C(=Cc2ccc(-c3ccc(F)cc3)o2)S1 (stereo in doubt)
Return: 1.33

Enquiry: Kindly indicate its recorded Euclidean distance. Item: O=[N+]([O-])c1ccc2c(c1)S(=O)(=O)C=C2 [Stattic]
Return: 4.56

Enquiry: State its Euclidean distance for this molecule: CN1CCC[C@@H]1CCO[C@](C)(c1ccccc1)c1ccc(Cl)cc1 [Clemastine Fumarate]
Return: 1.18

Enquiry: Using the record for FC(F)(F)c1ccc(CNc2ccc(Cc3c[nH]c4ncc(Cl)cc34)cn2)cn1 [Pexidartinib (PLX3397)] , state its measured Euclidean distance.
Return: 1
